These entries and their values trace back to patent US9745261B2.

Test system: DCT
Assay: qPCR assay for DCT expression in SK-MEL-5 cells
Format: cell-based
Details: Homo sapiens; SK-MEL-5 melanoma cells, up to 35 μM
quantity_name: pEC50
Keep in mind that pEC50 stands for -log10 of concentration in molar terms.

*Q* Form entry - test system: DCT; read-out: pEC50; compound: NS(=O)(=O)c1ccc(NC2=CC(=O)c3ccccc3C2=O)cc1
*A* 7.00

###

Tested on: MITF
Experiment: qPCR assay for MITF expression in SK-MEL-5 cells
Assay type: cell-based
Conditions: Homo sapiens; SK-MEL-5 melanoma cells, up to 35 μM
quantity_name: EC50 (nM)
Numbers only; they are read as nM.

*Q* Suppose we examine the compound NS(=O)(=O)c1ccc(NC2=CC(=O)c3ccccc3C2=O)cc1 ; what EC50 value has been reported?
*A* 160
